assay: Microsomal stability in human liver microsomes assessed as half life; format: ADME, Microsome
assay-endpoint: half-life
Returns: string containing the numeric result and its unit.

Q: What does the record list as half-life for Cc1cn2c(C(=O)NCc3ccc(N4CCN(c5ccc(OC(F)(F)F)cc5)CC4)c(F)c3)c(C)nc2s1 ?
Ans: 28 min

* * *

assay: Selectivity index, ratio of IC50 for cytotoxicity against African green monkey Vero cells to MIC90 for antimycobacterial activity against MDR-Mycobacterium tuberculosis KZN494; format: toxicity, cell-based; conditions: read-out: Selectivity Index
assay-endpoint: selectivity ratio

structure-smiles-string: Cc1ccc2nc(C)c(C(=O)NCCCC3CCCCC3)n2c1
selectivity ratio: ≥ 1024

Q: What does the record list as selectivity ratio for Cc1nc2ccc(Cl)cn2c1C(=O)NCCCC1CCCCC1 ?
Ans: ≥ 1024

* * *

test: Cytotoxicity against CHO-K1 cells; assay type: toxicity, cell-based, Cricetulus griseus; settings: Chinese hamster
assay-endpoint: pIC50
Expect pIC50 as a plain number equal to -log10 of the molar concentration.

Q: What does the record list as pIC50 for N#Cc1cccc(Nc2cc(C(F)(F)F)ccc2-c2cnc3ccccn23)c1 ?
Ans: 3.66

* * *

assay: Selectivity index, ratio of IC50 for cytotoxicity against African green monkey Vero cells to MIC90 for antimycobacterial activity against drug-sensitive Mycobacterium tuberculosis V4207; type: toxicity, cell-based; conditions: read-out: Selectivity Index
Let's look at some compounds and their measured selectivity ratio.

Q: What does the record list as selectivity ratio for Cc1nc2ccc(Cl)cn2c1C(=O)NCCCC1CCCCC1 ?
Ans: ≥ 1024

Q: Another compound to check: Cc1ccc2nc(C)c(C(=O)NCCCC3CCCCC3)n2c1
Ans: ≥ 1024

* * *

assay: Selectivity index, ratio of IC50 for cytotoxicity against African green monkey Vero cells to MIC90 for antimycobacterial activity against XDR-Mycobacterium tuberculosis TF274; format: toxicity, cell-based; conditions: read-out: Selectivity Index
assay-endpoint: selectivity ratio

structure-smiles-string: Cc1nc2ccc(Cl)cn2c1C(=O)NCCCC1CCCCC1
selectivity ratio: ≥ 1024

// moving on: another record for selectivity ratio
Q: What does the record list as selectivity ratio for Cc1ccc2nc(C)c(C(=O)NCCCC3CCCCC3)n2c1 ?
Ans: ≥ 1024

* * *

experiment: Cytotoxicity against African green monkey Vero cells assessed as reduction in cell viability; type: toxicity, cell-based, Chlorocebus sabaeus; conditions: African green monkey
assay-endpoint: pIC50
Expect pIC50 as a plain number equal to -log10 of the molar concentration.

Q: What does the record list as pIC50 for Cc1ccc2nc(C)c(C(=O)NCCCC3CCCCC3)n2c1 ?
Ans: 3.92

* * *

assay: Selectivity index, ratio of IC50 for cytotoxicity against African green monkey Vero cells to MIC90 for antimycobacterial activity against MDR-Mycobacterium tuberculosis V2475; assay type: toxicity, cell-based; conditions: read-out: Selectivity Index
Let's look at some molecules and their measured selectivity ratio.

structure-smiles-string: Cc1ccc2nc(C)c(C(=O)NCCCC3CCCCC3)n2c1
selectivity ratio: ≥ 1024

// moving on: another record for selectivity ratio
Q: What does the record list as selectivity ratio for Cc1nc2ccc(Cl)cn2c1C(=O)NCCCC1CCCCC1 ?
Ans: ≥ 1024
